system: Escherichia coli TOP10; test: shrunken log2 fold change of peptide-encoding DNA abundance (4.5 h post-induction vs induction); higher = less antimicrobial activity (less host growth inhibition); details: time post-induction: 4.5 h; library: site-saturation at positions 5, 18, 19, 20
Returns one of class 1 or class 0; class 1 when shrunken log2 fold change is >= -0.006.

Past entries and their recorded results:
- ORDERED RESIDUES: "RRIRMRPPRLPRPRPRPMNGPRP"
  CAT: "class 1"
- ORDERED RESIDUES: "RRIRLRPPRLPRPRPRPIGMPRP"
  CAT: "class 1"
- ORDERED RESIDUES: "RRIRPRPPRLPRPRPRPGTCPRP"
  CAT: "class 1"
- ORDERED RESIDUES: "RRIRARPPRLPRPRPRPWGSPRP"
  CAT: "class 1"

**Q:** Hi team, for RRIRTRPPRLPRPRPRPILFPRP , is the recorded shrunken log2 fold change at or above -0.006?
**A:** class 0

**Q:** Hi team, for RRIRQRPPRLPRPRPRPIYWPRP , is the recorded shrunken log2 fold change at or above -0.006?
**A:** class 1

**Q:** Hi team, for RRIRERPPRLPRPRPRPATWPRP , is the recorded shrunken log2 fold change at or above -0.006?
**A:** class 0

**Q:** Hi team, for RRIRYRPPRLPRPRPRPCNNPRP , is the recorded shrunken log2 fold change at or above -0.006?
**A:** class 0

**Q:** Hi team, for RRIRPRPPRLPRPRPRPFFEPRP , is the recorded shrunken log2 fold change at or above -0.006?
**A:** class 1

* * *

tested on: Escherichia coli TOP10; assay: shrunken log2 fold change of peptide-encoding DNA abundance (4.5 h post-induction vs induction); higher = less antimicrobial activity (less host growth inhibition); details: time post-induction: 4.5 h; library: site-saturation at positions 5, 18, 19, 20
ASSAY ENDPOINT: shrunken log2 fold change
Just the number.

Solved cases (2 shown):
- ORDERED RESIDUES: "RRIRIRPPRLPRPRPRPCILPRP"
  TESTED TARGET: "Escherichia coli TOP10"
  ENDPOINT RESULT: -0.55
- ORDERED RESIDUES: "RRIRPRPPRLPRPRPRPEVTPRP"
  TESTED TARGET: "Escherichia coli TOP10"
  ENDPOINT RESULT: 0.198

# input for lookup
Reported shrunken log2 fold change (Escherichia coli TOP10) for entry RRIRHRPPRLPRPRPRPIMFPRP is -0.439

* * *

test system: Escherichia coli TOP10; test: shrunken log2 fold change of peptide-encoding DNA abundance (4.5 h post-induction vs induction); higher = less antimicrobial activity (less host growth inhibition); conditions: time post-induction: 4.5 h; library: site-saturation at positions 5, 18, 19, 20
Quick reference for shrunken log2 fold change among some sequences
Just the number.

RRIRRRPPRLPRPRPRPETGPRP yielded shrunken log2 fold change of 0.304

* * *

tested on: Escherichia coli TOP10; experiment: shrunken log2 fold change of peptide-encoding DNA abundance (4.5 h post-induction vs induction); higher = less antimicrobial activity (less host growth inhibition); settings: time post-induction: 4.5 h; library: site-saturation at positions 5, 18, 19, 20
Returns one of met or not met; met when shrunken log2 fold change is >= -0.02.

- ORDERED RESIDUES: "RRIRRRPPRLPRPRPRPMHIPRP"
  CAT: "met"
- ORDERED RESIDUES: "RRIRWRPPRLPRPRPRPVQGPRP"
  CAT: "not met"
- ORDERED RESIDUES: "RRIRGRPPRLPRPRPRPMDPPRP"
  CAT: "met"

**Q:** Hi team, for RRIRRRPPRLPRPRPRPDWVPRP , is the recorded shrunken log2 fold change at or above -0.02?
**A:** met

**Q:** Hi team, for RRIRRRPPRLPRPRPRPQTDPRP , is the recorded shrunken log2 fold change at or above -0.02?
**A:** met

**Q:** Hi team, for RRIRQRPPRLPRPRPRPMCMPRP , is the recorded shrunken log2 fold change at or above -0.02?
**A:** met

**Q:** Hi team, for RRIRSRPPRLPRPRPRPTTQPRP , is the recorded shrunken log2 fold change at or above -0.02?
**A:** met

**Q:** Hi team, for RRIRWRPPRLPRPRPRPHDHPRP , is the recorded shrunken log2 fold change at or above -0.02?
**A:** not met

**Q:** Hi team, for RRIRTRPPRLPRPRPRPWKVPRP , is the recorded shrunken log2 fold change at or above -0.02?
**A:** met

**Q:** Hi team, for RRIRNRPPRLPRPRPRPQIMPRP , is the recorded shrunken log2 fold change at or above -0.02?
**A:** not met

**Q:** Hi team, for RRIRRRPPRLPRPRPRPLKQPRP , is the recorded shrunken log2 fold change at or above -0.02?
**A:** met

**Q:** Hi team, for RRIRSRPPRLPRPRPRPGCSPRP , is the recorded shrunken log2 fold change at or above -0.02?
**A:** not met

**Q:** Hi team, for RRIRDRPPRLPRPRPRPYVKPRP , is the recorded shrunken log2 fold change at or above -0.02?
**A:** not met

**Q:** Hi team, for RRIRQRPPRLPRPRPRPWRLPRP , is the recorded shrunken log2 fold change at or above -0.02?
**A:** not met

**Q:** Hi team, for RRIRVRPPRLPRPRPRPQKPPRP , is the recorded shrunken log2 fold change at or above -0.02?
**A:** met

**Q:** Hi team, for RRIRPRPPRLPRPRPRPLHIPRP , is the recorded shrunken log2 fold change at or above -0.02?
**A:** met

**Q:** Hi team, for RRIRMRPPRLPRPRPRPKYEPRP , is the recorded shrunken log2 fold change at or above -0.02?
**A:** met

* * *

tested on: Escherichia coli TOP10; experiment: shrunken log2 fold change of peptide-encoding DNA abundance (4.5 h post-induction vs induction); higher = less antimicrobial activity (less host growth inhibition); details: time post-induction: 4.5 h; library: site-saturation at positions 5, 18, 19, 20
Quick reference for shrunken log2 fold change among some sequences

Solved cases (5 shown):
- ORDERED RESIDUES: "RRIRRRPPRLPRPRPRPDELPRP"
  ENDPOINT RESULT: 0.614
- ORDERED RESIDUES: "RRIRCRPPRLPRPRPRPLGCPRP"
  ENDPOINT RESULT: 0.347
- ORDERED RESIDUES: "RRIRFRPPRLPRPRPRPLKAPRP"
  ENDPOINT RESULT: 0.693
- ORDERED RESIDUES: "RRIRSRPPRLPRPRPRPKMLPRP"
  ENDPOINT RESULT: -0.149
- ORDERED RESIDUES: "RRIRLRPPRLPRPRPRPTSYPRP"
  ENDPOINT RESULT: -0.395

RRIRDRPPRLPRPRPRPLLIPRP yielded shrunken log2 fold change of 0.338

RRIRVRPPRLPRPRPRPLYIPRP yielded shrunken log2 fold change of -0.555

RRIRVRPPRLPRPRPRPCECPRP yielded shrunken log2 fold change of 0.00846

* * *

test system: Escherichia coli TOP10; experiment: shrunken log2 fold change of peptide-encoding DNA abundance (4.5 h post-induction vs induction); higher = less antimicrobial activity (less host growth inhibition); conditions: time post-induction: 4.5 h; library: site-saturation at positions 5, 18, 19, 20;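 note: peptides expressed intracellularly from a pBAD plasmid library in pooled LB shake-flask culture, induced with 0.3% L-arabinose, DNA abundance read by NGS, three biological replicates, DESeq2 with apeglm shrinkage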
Quick reference for shrunken log2 fold change among some sequences
Just the number.

Solved cases (8 shown):
- ORDERED RESIDUES: "RRIRKRPPRLPRPRPRPMPKPRP"
  ENDPOINT RESULT: 0.421
- ORDERED RESIDUES: "RRIRSRPPRLPRPRPRPTQYPRP"
  ENDPOINT RESULT: -0.0116
- ORDERED RESIDUES: "RRIRCRPPRLPRPRPRPSHMPRP"
  ENDPOINT RESULT: -0.838
- ORDERED RESIDUES: "RRIRGRPPRLPRPRPRPKHLPRP"
  ENDPOINT RESULT: 0.0257
- ORDERED RESIDUES: "RRIRHRPPRLPRPRPRPCYKPRP"
  ENDPOINT RESULT: -0.522
- ORDERED RESIDUES: "RRIRPRPPRLPRPRPRPPAEPRP"
  ENDPOINT RESULT: 0.632
- ORDERED RESIDUES: "RRIRPRPPRLPRPRPRPQQEPRP"
  ENDPOINT RESULT: 0.0468
- ORDERED RESIDUES: "RRIRCRPPRLPRPRPRPEFNPRP"
  ENDPOINT RESULT: -0.0266

RRIRARPPRLPRPRPRPKRVPRP yielded shrunken log2 fold change of 0.455

RRIRHRPPRLPRPRPRPGHWPRP yielded shrunken log2 fold change of -0.0325

RRIRSRPPRLPRPRPRPPRHPRP yielded shrunken log2 fold change of 0.219

RRIRPRPPRLPRPRPRPHSIPRP yielded shrunken log2 fold change of -0.418

RRIRSRPPRLPRPRPRPRKKPRP yielded shrunken log2 fold change of 0.362

RRIRGRPPRLPRPRPRPLTSPRP yielded shrunken log2 fold change of 0.167

RRIRGRPPRLPRPRPRPCRIPRP yielded shrunken log2 fold change of -0.0785

RRIRGRPPRLPRPRPRPRYVPRP yielded shrunken log2 fold change of -0.0805

RRIRHRPPRLPRPRPRPSCWPRP yielded shrunken log2 fold change of -0.0721

RRIRYRPPRLPRPRPRPSCWPRP yielded shrunken log2 fold change of -0.349

RRIRQRPPRLPRPRPRPVHQPRP yielded shrunken log2 fold change of -0.104

RRIRSRPPRLPRPRPRPNIPPRP yielded shrunken log2 fold change of -0.492

RRIRERPPRLPRPRPRPIAKPRP yielded shrunken log2 fold change of 0.0393

RRIRSRPPRLPRPRPRPGWYPRP yielded shrunken log2 fold change of -0.118

RRIRPRPPRLPRPRPRPRHPPRP yielded shrunken log2 fold change of 0.357

RRIRCRPPRLPRPRPRPLFVPRP yielded shrunken log2 fold change of -0.482

Source: the supplement of paper PMC9112550
